Target: BRD4 (BDI_K57-E168) (Homo sapiens, UniProt O60885)
Construct: BD1: amino acids K57-E168
Assay: TR-FRET bromodomain binding assay, BRD4 first bromodomain
Details: His-tagged BD1, Alexa647-labeled probe 100 nM; Ki calculated from IC50
pKi: −log10 of the molar value.
PROPERTY NAME: pKi

>>> df
                                   compound                             system_tested  property_name  value_reported
0  Cc1[nH]c(-c2ccccc2NS(=O)(=O)c2ccc(O)cc2)cc1C(N)=O [Example 88]  BRD4 (BDI_K57-E168) (Homo sapiens, UniProt O60885)            pKi            5.07
1  Cc1[nH]c(-c2cccc(-c3cccc(CN4CCN(C)CC4)c3)c2)cc1C(N)=O [Example 158]  BRD4 (BDI_K57-E168) (Homo sapiens, UniProt O60885)            pKi            5.82
2  Cc1[nH]c(-c2ccccc2NS(=O)(=O)c2ccccc2)cc1C(N)=O [Example 78]  BRD4 (BDI_K57-E168) (Homo sapiens, UniProt O60885)            pKi            5.40
3  Cc1[nH]c(-c2cccc(Oc3ccc4c(c3)OCO4)c2)cc1C(N)=O [Example 160]  BRD4 (BDI_K57-E168) (Homo sapiens, UniProt O60885)            pKi            4.94
4  Cc1[nH]c(-c2cc(S(N)(=O)=O)ccc2Oc2ccc(F)cc2F)cc1C(N)=O [Example 168]  BRD4 (BDI_K57-E168) (Homo sapiens, UniProt O60885)            pKi            6.97
5  Cc1ccc(-c2cc(C(N)=O)c(C)[nH]2)c(C)c1 [Example 90]  BRD4 (BDI_K57-E168) (Homo sapiens, UniProt O60885)            pKi            5.60
6  Cc1[nH]c(-c2ccccc2Nc2ccccc2)cc1C(N)=O [Example 77]  BRD4 (BDI_K57-E168) (Homo sapiens, UniProt O60885)            pKi            6.76
7  Cc1[nH]c(-c2ccccc2NC2CCC2)cc1C(N)=O [Example 66]  BRD4 (BDI_K57-E168) (Homo sapiens, UniProt O60885)            pKi            5.75
8  Cc1[nH]c(-c2ccccc2Oc2ccc3ccccc3c2)cc1C(N)=O [Example 139]  BRD4 (BDI_K57-E168) (Homo sapiens, UniProt O60885)            pKi            6.14

---

The following molecules are listed with their measured log10 Ki values.
Target: BRD4 (BDII_E352-M457) (Homo sapiens, UniProt O60885)
Assay: TR-FRET bromodomain binding assay, BRD4 second bromodomain
Settings: His-tagged BD2, Alexa647-labeled probe 30 nM; Ki calculated from IC50
PROPERTY NAME: log10 Ki (log10 of the value in µM)

>>> df
                                   molecule  value_reported
0  Cc1[nH]c(-c2ccccc2NS(=O)(=O)C2CCCC2)cc1C(N)=O           -0.33
1       CCCCNc1ccccc1-c1cc(C(N)=O)c(C)[nH]1            0.17
2  Cc1[nH]c(-c2ccccc2Oc2ccc(C#N)cc2)cc1C(N)=O            1.10
3  Cc1[nH]c(-c2ccccc2NCc2cc(Cl)cc(Cl)c2)cc1C(N)=O            0.70
4  COC(=O)CNC(=O)c1cc(-c2ccc(-c3c(C)noc3C)cc2)[nH]c1C            1.33
5       Cc1[nH]c(-c2ccccc2NCC2CC2)cc1C(N)=O            0.88
6  Cc1[nH]c(-c2ccccc2N(Cc2cccs2)CC2CCCC2)cc1C(N)=O            1.31
7  Cc1[nH]c(-c2ccccc2NC2C3CC4CC(C3)CC2C4)cc1C(N)=O (stereo not drawn)           -0.38
8  Cc1[nH]c(-c2ccccc2NCc2ccc(Cl)c(Cl)c2)cc1C(N)=O            1.12

---

The following compounds are listed with their measured Ki values.
Target: BRD4 (BDII_E352-M457) (Homo sapiens)
Assay: TR-FRET bromodomain binding assay, BRD4 second bromodomain
Conditions: His-tagged BD2, Alexa647-labeled probe 30 nM; Ki calculated from IC50
PROPERTY NAME: Ki (µM)

                                    compound                         system_tested  property_name  unit_descriptor  value_reported
 0  Cc1[nH]c(-c2ccc([N+](=O)[O-])cc2)cc1C(N)=O  BRD4 (BDII_E352-M457) (Homo sapiens)             Ki               µM            6.89
 1  Cc1[nH]c(-c2ccccc2NS(=O)(=O)c2cccnc2)cc1C(N)=O  BRD4 (BDII_E352-M457) (Homo sapiens)             Ki               µM            13.4
 2  Cc1[nH]c(-c2ccccc2NC[C@H]2CC[C@H](N)CC2)cc1C(N)=O  BRD4 (BDII_E352-M457) (Homo sapiens)             Ki               µM             5.6
 3  Cc1[nH]c(-c2ccccc2Oc2ccc(C3CCCC3)cc2)cc1C(N)=O  BRD4 (BDII_E352-M457) (Homo sapiens)             Ki               µM            13.1
 4  Cc1[nH]c(-c2ccccc2Oc2ccc(Cl)cc2F)cc1C(N)=O  BRD4 (BDII_E352-M457) (Homo sapiens)             Ki               µM            2.24
 5  Cc1[nH]c(-c2ccc(-c3ccc(CN4CCN(C)CC4)cc3)cc2)cc1C(N)=O  BRD4 (BDII_E352-M457) (Homo sapiens)             Ki               µM            1.87
 6  Cc1[nH]c(-c2cc(CC(=O)O)ccc2OCc2ccccc2)cc1C(N)=O  BRD4 (BDII_E352-M457) (Homo sapiens)             Ki               µM            10.5
 7  Cc1[nH]c(-c2ccccc2N(Cc2ccc(OCCCN(C)C)cc2)CC2CCCC2)cc1C(N)=O  BRD4 (BDII_E352-M457) (Homo sapiens)             Ki               µM             1.9
 8  Cc1[nH]c(-c2ccccc2NCC2CCNC2)cc1C(N)=O (stereo not drawn)  BRD4 (BDII_E352-M457) (Homo sapiens)             Ki               µM            14.5
 9      Cc1ccc(-c2cc(C(N)=O)c(C)[nH]2)c(C)c1  BRD4 (BDII_E352-M457) (Homo sapiens)             Ki               µM            5.18
10  Cc1[nH]c(-c2ccccc2NC2CCc3ccccc3C2)cc1C(N)=O (stereo not drawn)  BRD4 (BDII_E352-M457) (Homo sapiens)             Ki               µM            1.65
11  Cc1[nH]c(-c2ccccc2NCc2ccc3[nH]ccc3c2)cc1C(N)=O  BRD4 (BDII_E352-M457) (Homo sapiens)             Ki               µM            2.69
12  CC(=O)Nc1ccc(CN(CC2CCCC2)c2ccccc2-c2cc(C(N)=O)c(C)[nH]2)cc1  BRD4 (BDII_E352-M457) (Homo sapiens)             Ki               µM            3.31
13  Cc1[nH]c(-c2ccc(-c3cccc(O)c3)cc2)cc1C(N)=O  BRD4 (BDII_E352-M457) (Homo sapiens)             Ki               µM            7.01
14  Cc1[nH]c(-c2ccccc2Oc2cccc3ccccc23)cc1C(N)=O  BRD4 (BDII_E352-M457) (Homo sapiens)             Ki               µM             1.3
15  Cc1[nH]c(-c2cc(N)ccc2Oc2ccccc2)cc1C(N)=O  BRD4 (BDII_E352-M457) (Homo sapiens)             Ki               µM           0.658
16  COC(=O)CCc1ccccc1Oc1ccccc1-c1cc(C(N)=O)c(C)[nH]1  BRD4 (BDII_E352-M457) (Homo sapiens)             Ki               µM           0.576
17           Cc1[nH]c(-c2cccc(N)c2)cc1C(N)=O  BRD4 (BDII_E352-M457) (Homo sapiens)             Ki               µM            4.44
